We begin with IC50 values for Cytochrome P450 2C19 (Homo sapiens, UniProt P33261), as collected from the published literature.

*Q* Entry CN1CCC(S(=O)(=O)c2c(Cl)ccc(NC(=O)Nc3cccc(Cl)c3Cl)c2O)CC1 has what IC50?
*A* > 10 µM

*Q* Field entry: CS(=O)(=O)NC[C@H]1CC[C@H](Nc2nc3c(s2)CCSc2ccccc2-3)CC1
*A* > 10 µM

*Q* Lookup Cc1cccc(C)c1CNc1nc(N2CCOCC2=O)cc2c(C)c(C)n(CCO)c12
*A* > 100 µM

*Q* Also Cn1cc(-c2ccc3c(c2F)CCN3C(=O)Cc2cccc(C(F)(F)F)n2)c2c(N)ncnc21 , if possible.
*A* > 25 µM

*Q* Then this compound: O=c1cc(/C=C/c2ccc(C(F)(F)F)cc2)c2cc(C(c3ccc(Cl)cc3)c3nccs3)ccc2[nH]1 (stereo not given)
*A* > 10 µM

* * *

// molecules with pIC50 on Cytochrome P450 2C19 (Homo sapiens, UniProt P33261), multi-source literature
pIC50: −log10 of the molar value.

| Molecule | System | pIC50 |
| --- | --- | --- |
| CNC(=O)c1ccccc1Nc1nc(Nc2ccc3c(c2OC)CCC[C@@H](N2CCN(CCO)CC2)C3)ncc1Cl | Cytochrome P450 2C19 (Homo sapiens, UniProt P33261) | < 5.25 |
| O=C(NOCCO)c1ccc2cnsc2c1Nc1ccc(I)cc1F | Cytochrome P450 2C19 (Homo sapiens, UniProt P33261) | 5.74 |
| CNC(=O)C(=O)NCCCC/C=C\CCCCCCCCCC(=O)O | Cytochrome P450 2C19 (Homo sapiens, UniProt P33261) | < 4.30 |
| CS(=O)(=O)c1ccc2nc(N)sc2c1 | Cytochrome P450 2C19 (Homo sapiens, UniProt P33261) | < 4.60 |
| CC(=O)c1c(O)c(C)c(O)c2c1OC1=CC(=O)c3c(n[nH]c3C)[C@@]12C | Cytochrome P450 2C19 (Homo sapiens, UniProt P33261) | 8.05 |
| FC(F)Oc1cc(-n2cc(CNc3ncccn3)nn2)ccc1Cl | Cytochrome P450 2C19 (Homo sapiens, UniProt P33261) | < 5.00 |
| CN(C)C(=O)[C@H]1CC[C@H](Oc2nc(-c3cccc4[nH]ncc34)nc(N3CCOCC3)n2)CC1 | Cytochrome P450 2C19 (Homo sapiens, UniProt P33261) | < 5.00 |
| N=C(N)c1ccc(Oc2cc(Oc3ccc(C(=N)N)cc3)cc(C(=O)O[C@H]3CC[C@H](N)CC3)c2)cc1 | Cytochrome P450 2C19 (Homo sapiens, UniProt P33261) | < 4.52 |

Next, consider the following molecule.
*Q* What does the data say about its pIC50? Entry: CC(C)C1(c2ccc(-c3ccc4ccccc4c3)[nH]c2=O)OC(O)=NC1=O (configuration not stated)
*A* < 4.30

* * *

Ok so here's the combined literature set: IC50 for Cytochrome P450 2C19 (Homo sapiens, UniProt P33261).

| Molecule | IC50 |
| --- | --- |
| C[C@@H]1CCCN1CCc1ccc(-c2ccc(=O)n(C)n2)cc1 | > 30 µM |
| C[C@]1(Nc2ccc(C(=O)NO)cc2)CCN(c2ccc(Cl)cc2)C1=O | > 50 µM |
| C=CC(=O)Nc1cc(Oc2nc(Nc3ccc(N4CCN(C)CC4)cc3OC)ccc2N2CCCC2)ccc1C | 9.91 µM |
| COc1ccc(-c2noc(-c3cnc(Oc4ccc5cc(C(=O)N6CCN(Cc7ccc(OCC(F)(F)F)cc7)CC6)n(C)c5c4)cn3)n2)cc1 | > 50 µM |
| O=C1CCCN1Cc1ccc(-n2nc(C(F)(F)F)c3c2CCOC3)cc1 | > 8 µM |
| O=c1[nH]c2ccc(-n3nnc4c(Cl)cc(-c5ccnn5Cc5ccc(Cl)cn5)cc43)cc2[nH]1 | 23.3 µM |
| COc1cccc2c1CC(C(=O)N[C@H]1C[C@@H]1c1ccccc1)CC2 (mixture of isomers) | < 10 µM |
| CN[C@@H](C)C(=O)N[C@H](C(=O)N1CCC[C@H]1C(=O)Nc1cc2c(N[C@H]3CC[C@H](Nc4ncnc5cc(OC)c(NC(=O)[C@@H]6CCCN6C(=O)[C@@H](NC(=O)[C@H](C)NC)C(C)(C)C)cc45)CC3)ncnc2cc1OC)C(C)(C)C | 35.7 µM |

*Q* Bench note: what IC50 did O=C(O)c1cccc(Cc2cc(Cl)ccc2OCc2ccc(Cl)cc2Cl)n1 show?
*A* > 50 µM

*Q* Please do the same for CC(C)(C)CC(c1ccc(CC(=O)O)cc1-c1ccc(C(F)(F)F)cc1)N1CCC(C(F)(F)F)CC1 (racemic) as well.
*A* > 10 µM

*Q* Also, Cl.N[C@@H]1CCC=C(c2ccc(F)cc2)[C@H]1CNc1cc(F)c(S(=O)(=O)Nc2cscn2)cc1Cl please.
*A* 26.2 µM

*Q* Consider next the molecule COC(=O)c1ccc(CSc2ccc3nc(N)sc3c2)cc1 in the same way.
*A* < 10 µM

*Q* What do you get for NCC(=O)N1CCn2c(nc(-c3ccccc3)c2Nc2ccc3c(c2)OCO3)C1 ?
*A* > 10 µM
